# Assay name: chemical genetic growth profiling, strain panel (AID 1159580);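 further: tested at 20 µM; growth read once vehicle control cultures reached saturation at 30 °C; 1 = growth at the plate median or of vehicle wells; lower values mean less growth of the strain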
# Conditions used: S. cerevisiae deletion strains, growth OD, locus YEL061C, strain CIN8, stronger effect = lower value
In all, about 5,500 compounds went through this assay and about 2,000 (36%) were called active. Inconclusive results (about 18%) are left out. The list shows a part of the results.
Provide the reported normalized growth of each item.
Numbers only.

OCCN1C[C@@H](O)[C@@H](O)C(O)C1CO (some centres undefined) | 1.02
COc1ccc(S(=O)(=O)Nc2ccccc2Oc2ccc(Cl)cc2Cl)cc1OC | 0.999
CO[C@H]1[C@H](O)[C@H](O[C@H]2CC[C@]3(C)C4CC[C@]5(C)C(C6=CC(=O)OC6)CC[C@]5(O)C4CC[C@@H]3C2)O[C@@H](C)[C@@H]1O (some centres undefined) | 1.01
CC(C(=O)O)c1ccc(-c2ccccc2)c(F)c1 (centres undefined) | 0.963
CCOc1ccc(/C=C(\C#N)c2cccc(Cl)c2)cc1 | 0.955

Please supply normalized growth for each of the following items, keeping them in order.
1. COC1=C(OC)C(=O)C(C/C=C(\C)CC/C=C(\C)CC/C=C(\C)CC/C=C(/C)CC/C=C(\C)CC/C=C(\C)CC/C=C(\C)CC/C=C(\C)CC/C=C(\C)CCC=C(C)C)=C(C)C1=O
2. COc1cc(NS(=O)(=O)c2ccc(N)cc2)nc(OC)n1

-- reply
1. 1.01
2. 1

Please supply normalized growth for each of the following items, keeping them in order.
1. Clc1cccc(Cl)c1CSC1=NCCCN1C1CCCCC1
2. N#CCOc1ccc(Cl)cc1Cl
3. CN1CCC(=C2c3ccccc3Sc3ccccc32)CC1

-- reply
0.973
0.99
1.01
